meta.source: ChEMBL document CHEMBL1201862

# Tested on: SR
# assay_comment: NCI tumour cell line growth inhibition, 48 h
Calls of active or inactive are those of the source. No stated cut-off is given here; in the data, active = GI50 up to about 1.1 µM and inactive = higher. Residues, ends and D or L forms follow the SMILES beside them. Groups on a side chain read outwards from the residue. *: point of attachment. Cbz = O=C(OCc1ccccc1)*; Boc = CC(C)(C)OC(=O)*
Parameter call: string, one of 1 = active, 0 = inactive

Worked examples follow.
Cc1cc(C)c(C(=O)/C(=C/c2ccccc2)c2ccccc2)c(C)c1 ... 0
O=[As]O ... 0
O=C1NC2(CCCCC2)C2CCCCCC12 (configuration not stated) ... 0
CC1CC[C@@]2(OC1)OC1C[C@H]3[C@@H]4CCC5CC(O)CC[C@]5(C)[C@H]4C/C(=N\N(C)C)[C@]3(C)C1[C@@H]2C (some centres not stated) ... 0
CC(C)CC(NC(=O)OCc1ccccc1)C(=O)NCCCCC(NC(=O)C(CCCCNC(=O)C(CC(C)C)NC(=O)OCc1ccccc1)NC(=O)C(CCCCNC(=O)C(CC(C)C)NC(=O)OCc1ccccc1)NC(=O)C(CCCCNC(=O)C(CC(C)C)NC(=O)OCc1ccccc1)NC(=O)OC(C)(C)C)C(=O)O (configuration not stated) (Boc-K([Leu-Cbz])K([Leu-Cbz])K([Leu-Cbz])K([Leu-Cbz])-OH; configuration not given here) ... 0
CC1=C(C(=O)Nc2ccc(Cl)c(Cl)c2)C(c2ccco2)C(C(=O)Nc2ccc(Cl)c(Cl)c2)=C(C)N1 ... 0

So what was the verdict on `CC(C)(C)C(=O)C(C#N)C(=O)C(C)(C)C` in this test? 1
